The reported measurements were obtained from paper PMC2756588.

Target: T1, Boi1, P38041
T1 sequence (P38041 1-86, looked up): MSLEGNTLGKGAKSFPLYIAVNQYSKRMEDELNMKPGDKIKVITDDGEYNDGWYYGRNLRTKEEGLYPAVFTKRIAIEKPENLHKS
Assay: SPOT array
Settings: median of control spots 1162
experimental_readout: SPOT intensity

[P] SKAKRPKFLLDLQIK
[Q] WTQRRGPLVVYAEDN
[R] HPRFVSPRIPSRIVK
Query: Please list these binders in decreasing order of SPOT intensity. Dear reader, please state the labels in the requested order.
Reply: P, Q, R
